# reported pKd; entries follow
# SYSTEM_TESTED: T1, CEACAM1 (Sino Biological) (human, UniProt P13688 35-428, limits assumed)
# T1 construct: may be the same as CEACAM1-HIS; also called hCEACAM1; biotinylated soluble CEACAM1
# T1 sequence: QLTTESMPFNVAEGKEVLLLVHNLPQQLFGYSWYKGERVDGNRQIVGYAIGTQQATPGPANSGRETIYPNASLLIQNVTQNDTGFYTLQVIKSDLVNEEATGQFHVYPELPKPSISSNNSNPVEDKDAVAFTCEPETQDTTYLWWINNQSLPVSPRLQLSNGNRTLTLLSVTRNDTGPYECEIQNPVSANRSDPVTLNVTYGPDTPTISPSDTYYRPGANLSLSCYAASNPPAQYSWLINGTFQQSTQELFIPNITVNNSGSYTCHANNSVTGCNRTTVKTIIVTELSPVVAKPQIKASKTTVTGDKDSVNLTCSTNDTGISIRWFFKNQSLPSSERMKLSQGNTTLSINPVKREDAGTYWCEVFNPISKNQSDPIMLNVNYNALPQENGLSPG
# ASSAY: SPR single-cycle
pKd: −log10 of the molar value.
VALUE_TYPE: pKd

{"BINDER": "He1/L18 (antibody, IgG4, V domains shown, IgG4 S241P, kappa) VH: EVQLLESGGGLVQPGGSLRLSCAASGFSFSDYYLYWVRQAPGKGLEWVATISVGGGQTSYADSVKGRFTISRDNSKNTLYLQMNSLRAEDTAMYYCTRGLYYGPSWFAYWGQGTLVTVSS VL: DIVMTQSPDSLAVSLGERATINCKSSQSLLNSANQKNYLAWYQQKPGQPPKLLIYFASTRESGVPDRFSGSGSGTDFTLTISSLQAEDVAVYYCQSHFPYPFTFGGGTKVEIK", "VALUE_REPORTED": 6.49}
{"BINDER": "He17/L6 (antibody, IgG4, V domains shown, IgG4 S241P, kappa) VH: EVQLLESGGGLVQPGGSLRLSCAASGFSFSDYYLYWVRQAPGKGLEWVATISVGGGQTSYADSVKGRFTISRDNSKNTLYLQMNSLRAEDTAMYYCTRARTYGPAWFAYWGQGTLVTVSS VL: DIVMTQSPDSLAVSLGERATINCKSSQSLLNSANQKNYLAWYQQKPGQPPKLLIYFASTRESGVPDRFSGSGSGTDFTLTISSLQAEDVAVYYCQSHYPFSFTFGGGTKVEIK", "VALUE_REPORTED": 7.10}
{"BINDER": "He17/L4#2 (antibody, IgG4, V domains shown, IgG4 S241P, kappa) VH: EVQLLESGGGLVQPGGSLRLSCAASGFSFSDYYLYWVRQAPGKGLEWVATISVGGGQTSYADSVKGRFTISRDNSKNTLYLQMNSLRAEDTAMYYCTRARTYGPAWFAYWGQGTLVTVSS VL: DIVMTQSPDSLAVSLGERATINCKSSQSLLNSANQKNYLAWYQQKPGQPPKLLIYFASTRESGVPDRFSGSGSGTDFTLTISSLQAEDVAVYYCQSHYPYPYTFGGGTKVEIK", "VALUE_REPORTED": 6.59}
